# assayed-target: NK2 (Homo sapiens, UniProt P21452)
# Sequence (P21452 1-398): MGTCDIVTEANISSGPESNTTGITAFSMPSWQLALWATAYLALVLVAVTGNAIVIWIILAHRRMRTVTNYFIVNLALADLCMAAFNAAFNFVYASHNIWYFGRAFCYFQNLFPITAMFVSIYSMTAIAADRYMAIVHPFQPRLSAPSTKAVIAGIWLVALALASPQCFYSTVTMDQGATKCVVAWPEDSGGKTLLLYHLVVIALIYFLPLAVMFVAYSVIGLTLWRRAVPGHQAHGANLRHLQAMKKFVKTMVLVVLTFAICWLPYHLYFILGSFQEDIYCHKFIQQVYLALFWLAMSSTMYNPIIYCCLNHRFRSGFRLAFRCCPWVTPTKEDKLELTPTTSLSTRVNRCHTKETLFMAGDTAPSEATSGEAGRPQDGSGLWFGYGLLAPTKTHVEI
# test: Signal transduction (ST), intracellular Ca++ (FLIPR), NK2
# Format: cell-based
# conditions-used: read-out: pIC50 NK2 (converted)
observable: IC50 (nM)
The reply should be a number in nM, with the unit left off.

Answered examples (2):
molecule | IC50, nM
O=C(c1cc(C(F)(F)F)cc(C(F)(F)F)c1)N1CC[C@H](N2CCN(C3CCCN(S(=O)(=O)c4ccc(CO)s4)C3)CC2)C[C@H]1Cc1ccccc1 (stereo partly drawn) [Compound 92] | 501
O=C(c1cc(C(F)(F)F)cc(C(F)(F)F)c1)N1CC[C@H](N2CCN(C3CCCN(S(=O)(=O)c4ccc(COCc5ccccc5)cc4)C3)CC2)C[C@H]1Cc1ccccc1 (stereo partly drawn) [Compound 58] | 2000

input: Any idea what IC50 was measured for O=C(c1cc(C(F)(F)F)cc(C(F)(F)F)c1)N1CC[C@H](N2CCN(C3CCCN(C(=O)C4(O)CC4)C3)CC2)C[C@H]1Cc1ccccc1 (stereo partly drawn) [Compound 61] ?
output: 3160

Just for reference, patent US7572786B2 is where these values come from.
